recorded endpoint: melting point (°C)
// note: answer is a bare numeric in °C

OCc1cc(C2CCCN2c2cc(F)cc(F)c2)c2nc(N3CCOCC3)cnc2c1 (stereo not shown) [Compound 10]
189
Cc1c(F)cccc1CNc1cc(C(=O)NCCN(C)C)cc2ncc(N3CCOCC3)nc12 [Compound 383]
172
O=C(c1cc(C2CCCN2c2cc(F)cc(F)c2)c2nc(N3CCOCC3)cnc2c1)N1CCC[C@H]1CO (mixture of isomers) [Compound 64]
80
COC(=O)c1cc(C(C)Nc2ccc(C)c(F)c2)c2nc(N3CCOCC3)cnc2c1 (stereo not shown) [Compound 293]
186
COC(=O)c1cc(C(C)Nc2cccc(F)c2)c2nc(N3CCOCC3)cnc2c1 (single isomer, unassigned) [Compound 262a]
199.7

Query :: Give the measured melting point of COCCN(C)Cc1cc(C2CCCN2c2cc(F)cc(F)c2)c2nc(N3CCOCC3)cnc2c1 (stereo not shown) [Compound 112] .
Result :: 80

Query :: CC(Nc1cc(F)c(F)c(F)c1)c1cc(C(=O)NCC(C)(C)O)cc2ncc(N3CCOCC3)nc12 (single isomer, unassigned) [Compound 292a] , same question.
Result :: 110
